Listed here are compounds together with their documented Ki.
# targetOrTestSystem: Human lung tryptase
# Construct: Human lung tryptase purchased from Cortex Biochem (San Leandro, Calif.) was purified further on a Superdex 200 gel-filtration column
# protocolText: Human lung tryptase inhibition, chromogenic GPR-pNA substrate
# Assay type: biochemical
# experimentalConditions: tryptase 1 nM, GPR-pNA 320 μM, 50 mM Tris-HCl pH 8.0, 37° C.
parameterMeasured: Ki (nM)

> print(dat)
                                   compound   targetortestsystem  parametermeasured  readoutunits  recordedresult
1  N=C(N)c1ccc(NC(=O)Cc2nc3cc(C(=N)N)ccc3[nH]2)cc1  Human lung tryptase                 Ki            nM             970
2  N=C(N)c1ccc2[nH]c(CC(=O)NC3CCN(Cc4ccccc4)CC3)nc2c1  Human lung tryptase                 Ki            nM            1700
3  N=C(N)c1ccc2[nH]c(CC(=O)Nc3ccc(S(N)(=O)=O)cc3)nc2c1  Human lung tryptase                 Ki            nM            2200
4  N=C(N)c1ccc2[nH]c(CC(=O)Nc3cccc(N)c3)cc2c1 [drawing 14 Indole 5-carboxamidine n=1 m=0]  Human lung tryptase                 Ki            nM             390
5  N=C(N)c1ccc2[nH]c(CC(=O)Nc3cccc(N)c3)nc2c1  Human lung tryptase                 Ki            nM             290
6  N=C(N)c1ccc2[nH]c(CC(=O)Nc3ccc4ncccc4c3)nc2c1  Human lung tryptase                 Ki            nM             340
